Answer each item with its documented pKd.
Molecular target: T1, EsCas13d, nuclease-dead (Eubacterium siraeum, UniProt B0MS50, R295A;H300A;R849A;H854A)
T1 sequence: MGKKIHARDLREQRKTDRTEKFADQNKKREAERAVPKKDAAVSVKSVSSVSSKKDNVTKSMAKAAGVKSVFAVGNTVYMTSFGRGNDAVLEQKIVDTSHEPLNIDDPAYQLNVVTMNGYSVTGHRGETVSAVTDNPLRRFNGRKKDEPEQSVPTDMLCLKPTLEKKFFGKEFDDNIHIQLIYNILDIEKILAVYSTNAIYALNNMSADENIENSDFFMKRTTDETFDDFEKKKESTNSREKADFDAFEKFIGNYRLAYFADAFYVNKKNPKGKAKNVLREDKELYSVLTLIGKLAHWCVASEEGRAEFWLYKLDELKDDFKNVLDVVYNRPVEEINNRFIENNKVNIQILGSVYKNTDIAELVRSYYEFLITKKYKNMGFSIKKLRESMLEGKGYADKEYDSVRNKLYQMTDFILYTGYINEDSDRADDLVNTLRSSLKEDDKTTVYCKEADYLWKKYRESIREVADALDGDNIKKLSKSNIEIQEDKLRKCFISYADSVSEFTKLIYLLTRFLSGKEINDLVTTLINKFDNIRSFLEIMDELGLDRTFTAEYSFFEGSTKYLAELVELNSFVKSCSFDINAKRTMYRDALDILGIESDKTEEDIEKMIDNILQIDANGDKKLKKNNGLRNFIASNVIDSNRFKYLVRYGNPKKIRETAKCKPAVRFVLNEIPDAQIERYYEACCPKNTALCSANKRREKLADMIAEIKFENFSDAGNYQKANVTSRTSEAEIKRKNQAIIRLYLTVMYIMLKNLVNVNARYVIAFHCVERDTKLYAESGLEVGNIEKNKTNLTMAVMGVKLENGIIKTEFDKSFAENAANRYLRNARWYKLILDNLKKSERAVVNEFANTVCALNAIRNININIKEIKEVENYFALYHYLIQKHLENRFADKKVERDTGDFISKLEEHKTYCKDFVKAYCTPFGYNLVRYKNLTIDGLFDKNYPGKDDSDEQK
Test: crRNA (strand 1, pre-loaded); Mg2+; 40 mM Tris-HCl pH 7.5, 150 mM NaCl, 6 mM MgCl2, 1 mM DTT, 0.1% Tween-20, 0.2 mg/ml BSA; 25 C; 10 min per concentration, then washed
Conditions: tags: His6-TwinStrep-SUMO cleaved; N-terminal SNAP kept (SNAP-Surface 488); label: 3' end held by stalled T7 RNA polymerase
One number for each entry, as −log10 of the molar value.

Here are 4 binders together with their reported answers.
[
  {
    "binder": "target 2 MT 5'PFS AAC 3'PFS AGC (mixed) RNA 1: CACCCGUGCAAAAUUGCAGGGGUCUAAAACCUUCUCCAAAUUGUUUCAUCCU RNA 2: GGGAAUGGAUCCACAUCUACGAAUUCAACAGGAUGAAACAAUUUGGAGAAGAGCAGAUCGGAAGAGCACACGU",
    "readout-name": "pKd",
    "reading": 8.36
  },
  {
    "binder": "target 1 MT 5'PFS GAG 3'PFS UCG (mixed) RNA 1: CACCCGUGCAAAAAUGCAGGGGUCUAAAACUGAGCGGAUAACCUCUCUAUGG RNA 2: GGGAAUGGAUCCACAUCUACGAAUUCGAGCCAUAGAGAGGUUAUCCGCUCAUCGAGAUCGGAAGAGCACACGU",
    "readout-name": "pKd",
    "reading": 7.38
  },
  {
    "binder": "target 1 insG 3' of 16,insU 3' of 5 (mixed) RNA 1: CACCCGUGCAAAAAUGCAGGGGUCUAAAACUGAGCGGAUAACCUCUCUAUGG RNA 2: GGGAAUGGAUCCACAUCUACGAAUUCGUACCAUAGAGGAGGUUAUCCGUCUCACCGAGAUCGGAAGAGCACACGU",
    "readout-name": "pKd",
    "reading": 7.81
  },
  {
    "binder": "target 1 insG 3' of 18,insC 3' of 15 (mixed) RNA 1: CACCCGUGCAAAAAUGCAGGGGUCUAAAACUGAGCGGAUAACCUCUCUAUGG RNA 2: GGGAAUGGAUCCACAUCUACGAAUUCGUACCAUAGGAGCAGGUUAUCCGCUCACCGAGAUCGGAAGAGCACACGU",
    "readout-name": "pKd",
    "reading": 7.21
  }
]

I would be grateful if you could provide pKd for each of the following entries.
1. target 2 MT 5'PFS GUA 3'PFS AAG (mixed) RNA 1: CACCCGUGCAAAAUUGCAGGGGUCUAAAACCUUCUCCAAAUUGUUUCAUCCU RNA 2: GGGAAUGGAUCCACAUCUACGAAUUCGUAAGGAUGAAACAAUUUGGAGAAGAAGAGAUCGGAAGAGCACACGU
2. target 1 insA 3' of 12,insA 3' of 4 (mixed) RNA 1: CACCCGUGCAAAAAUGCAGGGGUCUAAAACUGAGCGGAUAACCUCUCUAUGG RNA 2: GGGAAUGGAUCCACAUCUACGAAUUCGUACCAUAGAGAGGAUUAUCCGCAUCACCGAGAUCGGAAGAGCACACGU

[reply]
1. 8.15
2. 7.72

# batch: return pKd for each of the 2 binders below
1. target 1 A1C,C2A (mixed) RNA 1: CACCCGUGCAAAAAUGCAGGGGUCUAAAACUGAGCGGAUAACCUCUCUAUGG RNA 2: GGGAAUGGAUCCACAUCUACGAAUUCGUACCAUAGAGAGGUUAUCCGCUACCCGAGAUCGGAAGAGCACACGU
2. target 2 MT 5'PFS AUA 3'PFS UAU (mixed) RNA 1: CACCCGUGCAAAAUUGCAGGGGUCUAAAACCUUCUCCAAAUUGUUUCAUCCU RNA 2: GGGAAUGGAUCCACAUCUACGAAUUCAUAAGGAUGAAACAAUUUGGAGAAGUAUAGAUCGGAAGAGCACACGU

[reply]
[7.44, 8.15]
